# measurement-target: Glutamate NMDA receptor
# method: Displacement of [3H]CGS-19,755 from glutamate recognition site of N-methyl-D-aspartate glutamate receptor complex
# Format: protein-complex assay, Rattus norvegicus
pIC50: −log10 of the molar value.
Each entry below lists one item and its recorded pIC50 value.

INPUT: Look at this compound and give its reported pIC50. O=C(O)[C@@H]1C[C@H]2CC(CP(=O)(O)O)CC[C@H]2N1 (stereo not given in full)
OUTPUT: < 5.00

INPUT: Look at this compound and give its reported pIC50. O=C(O)C1CC2CC(CP(=O)(O)O)CCC2CN1 (stereo not given)
OUTPUT: < 5.00

INPUT: Look at this compound and give its reported pIC50. O=C(O)[C@@H]1C[C@H]2CC(Cc3nnn[nH]3)CC[C@H]2N1 (stereo not given in full)
OUTPUT: < 5.00

INPUT: Look at this compound and give its reported pIC50. O=C(O)C1CC2CC(Cc3nnn[nH]3)CCC2CN1 (stereo not given)
OUTPUT: < 5.00

INPUT: Look at this compound and give its reported pIC50. O=C(O)C1Cc2cc(CP(=O)(O)O)ccc2CN1 (stereo not given)
OUTPUT: 4.86

meta.source: ChEMBL document CHEMBL1126277
